B1: SETD8 (parent)
chain: KKAQGKTQQNRKLTDFYPVRRSSR

- Variants of: B1
- assay_method_text: protein stability index of a GFP-peptide fusion (GPS, HEK-293T) (PSI 1-6); higher = more stable;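 further: lentivirally expressed fusions sorted by FACS into six bins by GFP to DsRed ratio, PSI derived from sequencing read proportions per bin multiplied by bin number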
- condition_parameters: c terminus: a fixed tail appended
Exercise: state measured protein stability index for each of the variants provided.
Please state the value as a number alone, without comment.

-- ask Fill in: protein stability index of K6I is ___
-- reply 2.09

-- ask Look at this variant and give its reported protein stability index. R24C
-- reply 3.61

-- ask Fill in the blank: the reported protein stability index of Y17L is ____.
-- reply 2.84

-- ask Any idea what its protein stability index is? The variant is S23A
-- reply 3.62

-- ask Which protein stability index reading was recorded for the variant L13K ?
-- reply 5.04

-- ask What value of protein stability index has been reported for the following variant? R11Q
-- reply 2.71

-- ask # lookup: protein stability index of R20Y
-- reply 2.25

-- ask protein stability index lookup needed for Y17N , thanks.
-- reply 3.09

-- ask Param item = R21W ; retrieve measured protein stability index.
-- reply 2.57

-- ask Returns the measured protein stability index for the input variant. Input: K12D
-- reply 2.98

-- ask Can you look up the measured protein stability index of Q4V for me?
-- reply 3.42

-- ask State the recorded protein stability index for this entry: Q9R
-- reply 2.67

-- ask Report protein stability index for R21D please.
-- reply 3.23

-- ask Dear colleague, I am looking for the recorded protein stability index of the following variant: Y17P
-- reply 5.8

The reported measurements were obtained from the supplement of paper PMC10567573.
